- Test Target: Hexokinase HKDC1 (Homo sapiens) (UniProt Q2TB90)
- Sequence (Q2TB90 whole entry, looked up): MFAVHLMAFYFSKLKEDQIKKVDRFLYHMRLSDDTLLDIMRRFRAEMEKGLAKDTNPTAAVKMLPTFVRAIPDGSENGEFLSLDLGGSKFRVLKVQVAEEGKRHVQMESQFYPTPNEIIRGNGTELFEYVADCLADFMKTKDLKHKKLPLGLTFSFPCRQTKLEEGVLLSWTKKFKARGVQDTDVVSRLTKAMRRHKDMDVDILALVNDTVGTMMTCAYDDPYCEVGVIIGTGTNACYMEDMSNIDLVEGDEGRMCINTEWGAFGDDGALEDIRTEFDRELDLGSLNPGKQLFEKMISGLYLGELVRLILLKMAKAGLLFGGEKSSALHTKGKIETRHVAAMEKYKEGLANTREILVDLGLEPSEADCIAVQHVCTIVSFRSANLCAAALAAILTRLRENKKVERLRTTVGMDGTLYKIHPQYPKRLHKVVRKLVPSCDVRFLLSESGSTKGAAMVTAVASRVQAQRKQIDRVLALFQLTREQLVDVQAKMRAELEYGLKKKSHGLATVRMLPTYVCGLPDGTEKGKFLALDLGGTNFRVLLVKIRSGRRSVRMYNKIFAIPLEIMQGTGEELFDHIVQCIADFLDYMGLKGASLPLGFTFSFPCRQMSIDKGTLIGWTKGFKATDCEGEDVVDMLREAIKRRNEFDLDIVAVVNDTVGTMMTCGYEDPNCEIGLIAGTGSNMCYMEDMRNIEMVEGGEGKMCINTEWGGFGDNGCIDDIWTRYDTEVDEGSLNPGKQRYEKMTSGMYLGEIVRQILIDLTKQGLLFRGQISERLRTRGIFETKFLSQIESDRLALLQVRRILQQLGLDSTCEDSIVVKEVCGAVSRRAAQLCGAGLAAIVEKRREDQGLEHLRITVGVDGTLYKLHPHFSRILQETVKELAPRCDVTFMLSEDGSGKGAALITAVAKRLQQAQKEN
- Test Name: HKDC1 hexokinase inhibitors, primary screen, biochemical, fluorescence, uHTS (AID 493160);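 note: plate controls were DMSO wells with enzyme for no effect and DMSO wells lacking enzyme for full effect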
- Run Conditions: recombinant HKDC1, G6PDH/diaphorase resazurin coupled fluorescence; at 20 µM; stronger effect = higher value
Screen size: about 340,000 compounds; about 540 (0.16%) were called active. This is one part of a sample in which actives are shown more often than they occur.
Would you mind telling me the reported inhibition of each entry?
Give bare numbers, in %.

Sample records with inhibition:
Recorded inhibition of `C/C=C/c1ccc(OCC(=O)NNC(=O)CN(C)S(=O)(=O)c2ccc(C)cc2)c(OC)c1` , please. 0.23

Recorded inhibition of CC12CN(NC(=O)c3ccc(Cl)cc3)C3(C#N)CC1CCC23C (centres undefined) , please. -3.27

Recorded inhibition of `C=CC[C@@H](CC(=O)N[C@@H](CO)Cc1ccccc1)C(=O)N[C@H](COC(=O)[C@H](CC=C)CC(=O)OC(C)(C)C)Cc1ccccc1` , please. -4.61

Dear colleague, could you please provide inhibition for the compounds listed below?
1. N/C(=N\c1nc2ccccc2o1)NC(=O)C(Cc1ccccc1)N1C(=O)c2ccccc2C1=O (centres undefined)
2. CCCc1nc2oc3c(=O)[nH]cnc3c2c2c1COC(C)(C)C2
3. O=C(C[C@H]1C/C=C\C[C@@H](NC(=O)OCC2c3ccccc3-c3ccccc32)C(=O)O[C@@H](c2ccccc2)CNC1=O)N[C@H](CO)Cc1ccccc1
4. O=C(c1cccnc1)N(Cc1ccccc1)C(=O)c1cccnc1
5. O=C(CNC(=O)c1cc(=O)[nH]c2ccccc12)Nc1ccc(F)c(F)c1

[-5.13, 27.4, -0.6, -5.95, -8.3]

Dear colleague, could you please provide inhibition for the compounds listed below?
1. CCC(C)CN1CCC(CO)(Cc2ccccc2Cl)CC1 (centres undefined)
2. CC(C)CCSc1ncnc2c1oc1nc3c(cc12)COC(C)(C)C3
3. CCC(=C/c1sc2ccc3ccccc3c2[n+]1C)/C=C1\Sc2ccc3ccccc3c2N1C
4. CC(C)(C)OC(=O)N(Cc1ccccc1)Cc1ccc(OCc2cccc(NC(=O)c3ccccc3)c2)cc1

-10.2
1.9
45
-0.76

Dear colleague, could you please provide inhibition for the compounds listed below?
1. CCCCN(C(=O)c1cccc(N2C(=O)c3ccccc3C2=O)c1)c1c(N)n(CCCC)c(=O)[nH]c1=O
2. CC(C)(C)NC(=O)CSc1nnc(NC(=O)CCc2ccccc2)s1

[-1.42, -2.99]

Dear colleague, could you please provide inhibition for the compounds listed below?
1. O=C(COC(=O)c1ccccc1NC(=O)c1ccco1)Nc1ccc2c(c1)OC(F)(F)O2
2. CCCc1nc2oc3c(OCC)ncnc3c2c2c1COC(C)(C)C2
3. O=C(c1cccnc1)N(c1cc2sc(=O)oc2c2ccccc12)S(=O)(=O)c1ccccc1
4. Cn1c2ccccc2c2cc(/C=C(\NC(=O)c3ccccc3)C(=O)NCC(=O)O)ccc21

[-9.13, 37.7, 38.2, -5.19]

Recorded inhibition of `O=[N+]([O-])c1ccc(N2CCN(c3ccc(F)cc3)CC2)cn1` , please. 3.5

* * *

Would you mind telling me the reported inhibition of each entry?
- Test Target: Hexokinase HKDC1 (Homo sapiens)
- Test Name: HKDC1 hexokinase inhibitors, primary screen, biochemical, fluorescence, uHTS (AID 493160);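 note: plate controls were DMSO wells with enzyme for no effect and DMSO wells lacking enzyme for full effect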
- Run Conditions: recombinant HKDC1, G6PDH/diaphorase resazurin coupled fluorescence; at 20 µM; stronger effect = higher value
The whole screen tested about 340,000 compounds, of which about 540 (0.16%) were called active. What follows is part of a selection rich in actives, with near analogues and random picks from the rest.
Give bare numbers, in %.

Dear colleague, could you please provide inhibition for the compounds listed below?
1. O=c1[nH]n2c(-c3ccccc3)nc(O)c2c2ccccc12
2. O=c1[nH]c2ccccc2n2c(-c3ccccc3)nnc12
3. COC(=O)c1cc(OC)ccc1-c1ccc(OC)cc1
4. CC(=O)N(C1=C(Cl)C(=O)c2ccccc2C1=O)c1ccc(C(=O)O)cc1
5. C=CCCN(Cc1ccccc1)S(=O)(=O)c1ccccc1Br
6. CCCCn1nnnc1NCc1cc(OC)c(OC)c(OC)c1
7. NC(=O)C1CC=CCC1C(=O)OCC(Cl)=C(Cl)Cl (configuration not stated)

1: -18.8; 2: 46.7; 3: 6.2; 4: 52.2; 5: 2.98; 6: 10.4; 7: -10.8

Dear colleague, could you please provide inhibition for the compounds listed below?
1. CCOC(=O)C1=C(c2ccc(OC)cc2)C(=O)c2ccccc2C1=O
2. Cc1cccc([C@@H]2[C@@H]3C(=O)N(C)C(=O)[C@@H]3[C@@H]3C(=O)Nc4ccccc4C(=O)N23)c1
3. COC(=O)c1c(C)c(C)nc(N)c1C#N
4. Clc1ccc(C[n+]2cc(-c3ccc(Cl)cc3)n3c2CCC3)cc1

1: 81.4; 2: -0.25; 3: 3.54; 4: -3.08

Dear colleague, could you please provide inhibition for the compounds listed below?
1. CCN(CC(=O)Nc1ccc2c(c1)OCO2)S(=O)(=O)c1ccccc1
2. Cc1ccnc(SCC(=O)Nc2cccc(S(=O)(=O)N3CCOCC3)c2)n1

[-0.97, 0.74]
